target: SARS-CoV-2 Receptor Binding Domain (RBD) protein (SARS-CoV-2, UniProt P0DTC2 319-541); assay: SPR, scFv captured via anti-V5, RBD as analyte
PARAMETER MEASURED: kon (M⁻¹ s⁻¹)
Expressed in M⁻¹ s⁻¹, but write only the number.

Value of measured kon for the entry COVID19_P20_C11 (scFv, V domains shown) VH: EVQLVESGGGLVQPGGSLRLSCAASGFTFSSYSMNWVRQAPGKGLEWVSGISGSGDRTYYADSVKGRFTISRDNSKNTLYLQMNSLRAEDTAVYYCSMQRDNSRDYFPHYFHDMDVWGQGTLVTVSS VL: DIVMTQSPLSLPVTPGEPASISCRSSQSLLYSDGDTYLDWYLQKPGQSPQLLIYLGSIRAPGVPDRFSGSGSGTDFTLKISRVEAEDVGVYYCMQSVQTPWTFGGGTKVEIKR : 207000

Value of measured kon for the entry COVID19_P19_E01 (scFv, V domains shown) VH: EVQLVESGGGLVQPGGSLRLSCAASGFTFSSYAMHWVRQAPGKGLEWVAVVSRSGGSTFYADSVKGRFTISRDNSKNTLYLQMNSLRAEDTAVYYCVTQRDNSRDYFPHYFHDMDVWGQGTLVTVSS VL: DIVMTQSPLSLPVTPGEPASISCRSSQSLVHSNGDTYLDWYLQKPGQSPQLLIYLGSIRAPGVPDRFSGSGSGTDFTLKISRVEAEDVGVYYCQQSYSTPWTFGGGTKVEIKR : 155000
